Known pIC50 of a selection of molecules
- experiment_description: Inhibition of almond beta-glucosidase assessed as reduction of p-nitrophenol release using p-nitrophenyl glycoside as substrate by spectrophotometric analysis
- Design: species or system Prunus dulcis
Please note pIC50 is a logarithmic value: minus log10 of concentration in mol/L. Answer with that number alone.

- smiles_str: "Cl.OC[C@H]1N[C@H](CCCCCCCc2ccc(Cl)cc2)[C@@H](O)[C@@H]1O"
  quantitative_readout: 4.89

What does the record list as pIC50 for OC[C@@H]1N[C@@H]([C@@H](O)CCCCCCc2ccc(F)cc2)[C@H](O)[C@H]1O ?
4.46

# pIC50 lookup, item Cl.OC[C@@H]1N[C@@H](CCCCCCCc2ccccc2)[C@H](O)[C@H]1O
3.69

Data request, read-out pIC50, for OC[C@H]1N[C@H]([C@H](O)CCCCCCc2ccc(Cl)cc2)[C@@H](O)[C@@H]1O
6.92

Entry under review: OC[C@H]1N[C@H](CCCCCCCc2ccccc2)[C@@H](O)[C@@H]1O . Reported pIC50?
5.00

For Cl.OC[C@H]1N[C@H]([C@H](O)CCCCCCc2ccc(F)c(F)c2)[C@@H](O)[C@@H]1O , what is its reported pIC50?
6.28
